Test system: OVCAR-8 ovarian
Assay: NCI-60 one-dose screen, 48 h (100 = growth as untreated, 0 = no growth, -100 = all killed)
Conditions: 10 µM unless noted
The panel holds about 83,000 compounds, 20% with a hit somewhere; the sample as a whole holds those more often.
metric: growth (%)
Give bare numbers, in %.

For each entry beneath this line, provide reported growth.
1. CSC1=CC(=O)c2ccccc2C1=O
2. O=C(C[Si](CC(=O)c1cccc(C(F)(F)F)c1)CC(=O)c1cccc(C(F)(F)F)c1)c1cccc(C(F)(F)F)c1
3. COc1cc(-c2ccc3cc(OC)c(OC)c(OC)c3c2)cc(OC)c1OC
4. O=c1ccc2ccccc2o1
5. c1ccc(-c2nc(N3CCOCC3)c3c4c(sc3n2)CCCCCC4)nc1

1: 46.8; 2: 90.9; 3: 78.4; 4: 105; 5: 42.4

Please give the measured growth for this compound: O=C(c1ccc2ncc(-c3nc(NC4CC4)ncc3F)n2c1)N1CCOCC1
18.5

----------
System: IGROV1 ovarian
Experiment: NCI-60 one-dose screen, 48 h (100 = growth as untreated, 0 = no growth, -100 = all killed)
Conditions: 10 µM unless noted
This is part of a sample that, as a whole, favours compounds with a hit. Of some 83,000 tested, about 20% had one in any assay.
Would you mind telling me the reported growth of each entry?
One number for each entry, in %.

Consider the following illustrative entries.
# compound, growth [%]
rows = [
    ("O=C(CCc1nnc2sc(/C=C\\c3ccccc3)nn12)c1nc2ccccc2[nH]1", 96),
    ("O=C1NC(=O)C2(CCCC2C(=O)O)N1 (stereo not given)", 131),
    ("O=C1c2ccccc2C(=O)c2c(Nc3ccc(CCO)cc3)ccc(O)c21", 45.4),
    ("COc1cc(C2CC(=O)Nc3c2ccc2ccccc32)cc(Br)c1OC (stereo not given)", 32.4),
]

Now, please, on to the next compound.
Please give the measured growth for this compound: COc1ccc(NC(=O)c2ccc3c(c2)nc(-c2ccc(Cl)cc2)n3-c2cc(C(C)(C)C)[nH]n2)cc1
88.7

----------
Test system: OVCAR-5 ovarian
Assay: NCI-60 one-dose screen, 48 h (100 = growth as untreated, 0 = no growth, -100 = all killed)
Details: 10 µM unless noted
The panel holds about 83,000 compounds, 20% with a hit somewhere; the sample as a whole holds those more often.
Would you mind telling me the reported growth of each entry?
Numbers only, in %.

Consider the following illustrative entries.
# compound, growth, %
data = [
    ("COc1cc2oc(-c3ccc(O)cc3)cc(=O)c2c(O)c1I", 104),
    ("O=C1CC(c2ccsc2)c2snc(-c3ccc(Cl)cc3)c2N1 (stereo not given)", 47.7),
    ("NS(=O)(=O)c1ccc(C(=O)N/N=C(\\CS(=O)(=O)c2ccccc2)c2cc3cc(Br)ccc3o2)cc1", 99.8),
    ("CCOC(=O)c1c(Cl)c2c(n1Cc1ccc(OC)cc1)-c1oncc1CCC2", 90.1),
]

Please give the measured growth for this compound: CCOC(=O)C1=C(C)N2C(=NC3=C(CCCC/C3=C\c3cc(OC)c(OC)c(OC)c3)C2c2cc(OC)c(OC)c(OC)c2)S1 (stereo not given)
85.6

----------
Would you mind telling me the reported growth of each entry?
Tested on: KM12 colon
Experiment: NCI-60 one-dose screen, 48 h (100 = growth as untreated, 0 = no growth, -100 = all killed)
Conditions: 10 µM unless noted
Description: Growth inhibition of the KM12 human tumor cell line is measured as a screen for anti-cancer activity. Cells are grown in 96 well plates and exposed to the test compound for 48 hours. Compounds are tested at a single concentration, which is 10^-5 M for most compounds. The reported endpoint is percent growth (GI% or GIPRCNT), where numbers from 0 - 100% represent growth inhibition, and numbers from -100% - 0 represent cell death. For example, a value of 40 represents 60% growth inhibition. […]
About 83,000 compounds went through this panel and 20% of them were active in at least one assay; those are over-represented in the sample as a whole.
Numbers only, in %.

Consider the following illustrative entries.
# compound, growth (%)
measured = [
    ("COc1ccc(NS(=O)(=O)c2ccc(-c3cnc(C4CC4)o3)cc2)cc1", 40.2),
    ("FC(F)(F)c1ccc2c(c1)n1cnnc1c1nncn21", 110),
    ("C=CC(=O)N1CC2(CC(n3nc(-c4ccc(Oc5ccccc5)cc4)c4c(N)ncnc43)C2)C1", 48.9),
    ("NC(=O)c1cc(I)ccc1NC(=O)COc1ccc(Cl)cc1Cl", 67.8),
    ("CNc1ccc(Br)cc1-c1n[nH]c(=O)[nH]c1=O", 111),
]

For each entry beneath this line, provide reported growth.
1. Cc1nn(-c2ccccc2)c2nc3nc4c(c(N)c3c(-c3ccc(Cl)cc3)c12)CCC4
2. CC[Si](CC)(CC)OC1[C@@H](O[Si](CC)(CC)CC)[C@@H](CNC(=O)NC)O[C@H]1n1cnc2c(NC(=O)Nc3ccccc3)ncnc21 (stereo partly specified)

[96.6, 60.8]
